# assay method text: Cell Viability - LYMP2-012 (AID 982);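 also: cellular ATP by luciferase luminescence where a drop means cytotoxicity; cells exposed to compound for one day before reading; nearly all actives have a fitted effect of over 55% in size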
# recorded conditions: LYMP2-012 lymphoblastoid cell viability qHTS; series mostly up to 92.2 µM
Results filed as inconclusive are left out. Active and inactive are the calls of the source. Calls follow the shape of the dose curve; as a rule, active = well fitted cell-killing curve with a large enough effect; inconclusive = small, poorly fitted or top-dose-only effect; inactive = flat fitted curve, though single readings scatter.
Could you please pick one outcome from this set? 1 for active, 0 for inactive

O=C1OC(c2ccc(O)cc2)(c2ccc(O)cc2)c2ccccc21
0

Exam item: Check the results log: what was the call for COc1cccc2c1C(=O)c1c(O)c3c(c(O)c1C2=O)C[C@@](O)(C(C)=O)C[C@@H]3O[C@H]1C[C@H](N)[C@H](O)[C@H](C)O1 ?
Marked response: 1

Exam item: Check the results log: what was the call for COc1cccc2c1C(=O)c1c(O)c3c(c(O)c1C2=O)C[C@@](O)(C(=O)CO)C[C@@H]3O[C@H]1C[C@H](N)[C@H](O)[C@H](C)O1 ?
Marked response: 1

Recorded values, source PubChem BioAssay (NCATS).
